- protocolNotes: NFAT Signaling Pathway (AID 444);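 note: carbachol stimulus at about its EC50 of 1 µM final; % is set by controls: 0 for no effect and ±100 for the full control effect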
- conditionDescription: Jurkat NFAT-bla M1, carbachol, beta-lactamase ratio, 5 h; at 7.69 µM (top of the series) unless noted
- Description: NCGC Assay Overview: The nuclear factor of activated T cells (NFAT) family of transcription factors has been found primarily in most immune system cells and some other non-immune cells. NFAT plays the immunomodulatory role, primarily in T-cell activation and differentiation. […] NCGC Assay Protocol Summary: The cells were prepared in RPMI 1640 medium containing 0.1% dialyzed FBS and 25 mM HEPES at 1.6 x 10^6cell/ml. […] The %Activity was determined from the ratio of 460nm/530nm. […]
Results filed as inconclusive are left out. Calls of active or inactive are those of the source. Calls come from the whole dose curve; as a rule, active = well fitted curve in either direction with a large enough effect (not every such curve was filed as active); inconclusive = small, poorly fitted or top-dose-only effect, or another doubt; inactive = flat fitted curve, though single readings scatter.
measuredMetric: activity change, negative = inhibition

{"columns": ["smilesEntry", "endpointResult"],
 "data": [
  ["O=C(O)c1ccc(Cc2ccccc2C(=O)O)cc1", "5.4% (inactive)"],
  ["C=C[C@@]1(C)CC(=O)[C@@]2(O)[C@@]3(C)[C@H](O)CCC(C)(C)[C@@H]3[C@H](O)[C@H](OC(C)=O)[C@]2(C)O1", "5.97% [at 38 µM] (inactive)"],
  ["O=C(O)c1cccc2cccc(-c3cccc4cccc(C(=O)O)c34)c12", "10.7% (inactive)"],
  ["COc1ccc(NC(=S)Nc2ccccc2)cc1", "6.45% (inactive)"],
  ["CC(C)=C[C@H]1[C@@H](COC(=O)c2ccccc2Cl)C1(C)C", "12.7% (inactive)"],
  ["CN(C)CCSCCO", "2.29% (inactive)"],
  ["C[C@@H](CS(=O)(=O)Cc1ccccc1)C(N)=O", "5.68% (inactive)"],
  ["FC(F)(F)c1cc(NC(=S)N2c3ccccc3-n3cccc3[C@H]2c2cccnc2)cc(C(F)(F)F)c1", "16.9% (inactive)"],
  ["N/N=C1/c2ccccc2N[C@H]1OC(=O)Nc1cccc(Cl)c1", "-19.2% (inactive)"],
  ["COc1cc2nc(N3CCN(C(=O)OCc4ccccc4)[C@H](C(=O)NC(C)(C)C)C3)nc(N)c2cc1OC", "3.46% [at 38 µM] (inactive)"]
]}
